- System: SNB-78
- procedure.summary: NCI tumour cell line growth inhibition, 48 h
Calls of active or inactive are those of the source. Cut-off read from the data, not from the text of the source: active = GI50 up to about 1.1 µM and inactive = higher.
Log the outcome using a class from active, inactive

[
  {
    "compound": "Cc1ccc(NC(=O)c2c(C)nc(=O)n3c2N(/N=C/c2ccc(Cl)cc2)CC3)cc1",
    "category": "inactive"
  },
  {
    "compound": "COc1ccc(CC2=NCCc3cc(OC)c(OC)cc32)cc1Br",
    "category": "inactive"
  },
  {
    "compound": "O=C(/C=C/c1ccccc1)/C=C/c1ccccc1O",
    "category": "inactive"
  },
  {
    "compound": "O=S1(=O)OCCOS(=O)(=O)C1(Br)Cc1ccccc1",
    "category": "inactive"
  },
  {
    "compound": "Cc1c2cc[n+]([O-])cc2c(C)c2c1[nH]c1ccccc12",
    "category": "inactive"
  },
  {
    "compound": "CC(C)(Oc1ccc2c(=O)cc(-c3ccccc3)oc2c1)C(=O)Nc1c(Cl)cccc1Cl",
    "category": "inactive"
  },
  {
    "compound": "Clc1ccc(CN2COc3c(cc(Cl)c4cccnc34)C2)cc1",
    "category": "inactive"
  },
  {
    "compound": "CCOP(=O)(OCC)C1CC(C)OC1=O (configuration not stated)",
    "category": "inactive"
  }
]

query: What did this assay record as the result for `CC1=NN(C(=O)Cc2ccccc2)C(=O)/C1=C\c1ccc(O)cc1` ?
result: inactive

query: What did this assay record as the result for `O=C(O)CCSC(=S)Nc1ccc([N+](=O)[O-])cc1` ?
result: inactive

query: What did this assay record as the result for `CC(C)(C)c1cc2ccc(C(N)=O)cc2c(=O)[nH]1` ?
result: inactive

query: What did this assay record as the result for `Cn1c(=O)nc2n(-c3ccc(Cl)c(C(F)(F)F)c3)c3ccccc3nc-2c1=O` ?
result: inactive

query: What did this assay record as the result for `N=C(N)NS(=O)(=O)c1ccc(Nc2c3ccccc3nc3c(C(=O)Nc4ccc(S(N)(=O)=O)cc4)ccc(Cl)c23)cc1` ?
result: inactive

query: What did this assay record as the result for `CCCCCCC(=O)OC[n+]1ccc2c(C)c3[nH]c4ccc(OC)cc4c3c(C)c2c1` ?
result: active

query: What did this assay record as the result for Clc1ccc(C2=NN(c3ccccc3)C3c4cc(Br)ccc4OCC23)cc1 (configuration not stated) ?
result: inactive

The values you see were collected from ChEMBL document CHEMBL1201862.
